# SYSTEM: Lysophosphatidic acid receptor 5 (Homo sapiens)
# PROTOCOL: Antagonist activity at human LPA5 receptor expressed in RH7777 cells assessed as inhibition of EC80 concentration of hexadecyl LPA-induced calcium mobilization incubated for 15 mins by FLIPR method
# Type: functional, cell-based
MEASURE: EC50 (nM)
The response must be a number in nM with no trailing unit.

Memo: CCCCCCCCCCCCCCCCOC[C@@H](O)COP(=O)(O)O , reported EC50: 15

----------
# SYSTEM: Lysophosphatidic acid receptor 5 (Homo sapiens, UniProt Q9H1C0)
# Sequence (Q9H1C0 whole entry): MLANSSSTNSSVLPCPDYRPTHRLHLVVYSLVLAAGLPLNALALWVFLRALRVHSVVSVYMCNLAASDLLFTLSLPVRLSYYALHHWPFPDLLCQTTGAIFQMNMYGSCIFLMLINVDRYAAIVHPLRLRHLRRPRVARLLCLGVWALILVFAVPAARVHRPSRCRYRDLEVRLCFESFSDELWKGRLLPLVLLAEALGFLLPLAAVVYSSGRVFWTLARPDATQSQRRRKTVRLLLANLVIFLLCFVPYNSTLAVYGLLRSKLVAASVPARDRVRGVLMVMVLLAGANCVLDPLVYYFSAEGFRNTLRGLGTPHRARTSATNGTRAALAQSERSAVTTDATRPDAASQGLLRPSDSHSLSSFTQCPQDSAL
# PROTOCOL: Antagonist activity at human LPA5 receptor expressed in RH7777 cells assessed as inhibition of EC80 concentration of hexadecyl LPA-induced calcium mobilization incubated for 15 mins by FLIPR method
# Format: functional, cell-based
MEASURE: IC50 (µM)
The response must be a number in µM with no trailing unit.

Sample C#CC1CCN(C(=O)c2cn(-c3ccc4scc(C)c4c3)c(=O)c3cc(OC)c(OC)cc23)CC1 , system: Lysophosphatidic acid receptor 5 (Homo sapiens, UniProt Q9H1C0). Its IC50 is 0.032

Sample COc1cc2c(C(=O)N3CCCCC3)cn(-c3ccc4onc(C)c4c3)c(=O)c2cc1OC , system: Lysophosphatidic acid receptor 5 (Homo sapiens, UniProt Q9H1C0). Its IC50 is 3.9

Sample COc1cc2c(=O)n(-c3cccc(N(C)C)c3)cc(C(=O)N3CCC(F)CC3)c2cc1OC1CCCCC1 , system: Lysophosphatidic acid receptor 5 (Homo sapiens, UniProt Q9H1C0). Its IC50 is 0.51

Sample COc1cc2c(=O)n(-c3cccc(N(C)C)c3)cc(C(=O)N3CCC(F)CC3)c2cc1O , system: Lysophosphatidic acid receptor 5 (Homo sapiens, UniProt Q9H1C0). Its IC50 is 1.37

----------
# PROTOCOL: Aqueous solubility of compound at pH 7.4
# Assay type: physicochemical
# CONDITIONS: aqueous medium
Provide the recorded solubility kinetic for the entries that follow.
The response must be a number in µM with no trailing unit.

Memo: COc1cc2c(C(=O)N3CCC(F)CC3)cn(-c3ccc4scc(C)c4c3)c(=O)c2cc1OC , reported solubility kinetic: 96.4

Memo: C#CC1CCN(C(=O)c2cn(-c3ccc4scc(C)c4c3)c(=O)c3cc(OC)c(OC)cc23)CC1 , reported solubility kinetic: 19.5

----------
Provide the recorded pIC50 for the entries that follow.
# SYSTEM: Lysophosphatidic acid receptor 5 (Homo sapiens)
# PROTOCOL: Antagonist activity at human LPA5 receptor expressed in RH7777 cells assessed as inhibition of EC80 concentration of hexadecyl LPA-induced calcium mobilization incubated for 15 mins by FLIPR method
# Format: functional, cell-based
Scale explanation: pIC50 corresponds to minus log10 of a concentration expressed in moles per litre.

Memo: COc1cc2c(C(=O)N3CCC(OC)CC3)cn(-c3cccc(N(C)C)c3)c(=O)c2cc1OC , reported pIC50: 6.19

Memo: COc1cc2c(C(=O)N3CCCC(C)C3)cn(-c3cccc(N(C)C)c3)c(=O)c2cc1OC (racemic) , reported pIC50: 6.59

Memo: COc1cc2c(C(=O)N3CCCc4ccccc43)cn(-c3cccc(N(C)C)c3)c(=O)c2cc1OC , reported pIC50: 5.36

Memo: COc1cc2c(C(=O)N3CCC(C#N)CC3)cn(-c3cccc(N(C)C)c3)c(=O)c2cc1OC , reported pIC50: 6.99

----------
# SYSTEM: Lysophosphatidic acid receptor 5 (Homo sapiens)
# PROTOCOL: Antagonist activity at human LPA5 receptor expressed in RH7777 cells assessed as inhibition of EC80 concentration of hexadecyl LPA-induced calcium mobilization incubated for 15 mins by FLIPR method
# Format: functional, cell-based
pIC50: −log10 of the molar value.
MEASURE: pIC50

Memo: COc1cc2c(C(=O)N(C)C)cn(-c3cccc(N(C)C)c3)c(=O)c2cc1OC , reported pIC50: < 5.00

Memo: COc1cc2c(C(=O)N3CCCCC3)cn(-c3ccc4cccc(C)c4c3)c(=O)c2cc1OC , reported pIC50: 6.68

Memo: COc1cc2c(C(=O)N3CCCCC3)cn(-c3ccncc3)c(=O)c2cc1OC , reported pIC50: < 5.00

Memo: COc1cc2c(C(=O)C3CCCCC3)cn(-c3cccc(N(C)C)c3)c(=O)c2cc1OC , reported pIC50: < 5.00

Memo: CCNC(=O)c1cn(-c2cccc(N(C)C)c2)c(=O)c2cc(OC)c(OC)cc12 , reported pIC50: < 5.00

----------
# SYSTEM: Lysophosphatidic acid receptor 5 (Homo sapiens)
# PROTOCOL: Agonist activity at human LPA5 receptor expressed in RH7777 cells assessed as calcium mobilization incubated for 15 mins by FLIPR method
# Assay type: functional, cell-based
Activity calls are given as the source filed them. How the calls were made is not given here.
MEASURE: Activity

Some entries whose results are on file:
>  <STRUCTURE_AS_SMILES>
COc1cc2c(C(=O)N3CCCCC3)cn(-c3cccc(C(C)(C)C)c3)c(=O)c2cc1OC

>  <MEASURE>
Activity

>  <REPORTED_RESULT>
inactive

$$$$
>  <STRUCTURE_AS_SMILES>
COc1cc2c(C(=O)N3CCCCCCC3)cn(-c3cccc(N(C)C)c3)c(=O)c2cc1OC

>  <MEASURE>
Activity

>  <REPORTED_RESULT>
inactive

$$$$
>  <STRUCTURE_AS_SMILES>
COc1cc2c(C(=O)N(C)C)cn(-c3cccc(N(C)C)c3)c(=O)c2cc1OC

>  <MEASURE>
Activity

>  <REPORTED_RESULT>
inactive

$$$$
>  <STRUCTURE_AS_SMILES>
COc1cc2c(C(=O)N3CCCCC3)cn(-c3ccncc3)c(=O)c2cc1OC

>  <MEASURE>
Activity

>  <REPORTED_RESULT>
inactive

$$$$

Memo: COc1cc2c(C(=O)N3CCCCC3)cn(-c3ccc4ccn(C)c4c3)c(=O)c2cc1OC , reported Activity: inactive

Memo: COc1cc2c(C(=O)NC3CCCC3)cn(-c3cccc(N(C)C)c3)c(=O)c2cc1OC , reported Activity: inactive

Memo: COc1cc2c(=O)n(-c3cccc(N(C)C)c3)cc(C(=O)N3CCC(F)CC3)c2cc1OCc1ccccn1 , reported Activity: inactive

Memo: COc1cc2c(C(=O)N3C4CCC3CC4)cn(-c3cccc(N(C)C)c3)c(=O)c2cc1OC , reported Activity: inactive

Memo: COc1cc2c(C(=O)N3CCC(C)(C)CC3)cn(-c3cccc(N(C)C)c3)c(=O)c2cc1OC , reported Activity: inactive

----------
# SYSTEM: Lysophosphatidic acid receptor 5 (Homo sapiens, UniProt Q9H1C0)
# PROTOCOL: Antagonist activity at human LPA5 receptor expressed in RH7777 cells assessed as inhibition of EC80 concentration of LPA-induced cAMP accumulation preincubated for 30 mins followed by Eu-cAMP tracer addition and measured after 1 hr by TR-FRET assay
# Format: functional, cell-based
MEASURE: IC50 (µM)
The response must be a number in µM with no trailing unit.

Sample COc1cc2c(C(=O)N3CCCCC3)cn(-c3ccc4ccn(C)c4c3)c(=O)c2cc1OC , system: Lysophosphatidic acid receptor 5 (Homo sapiens, UniProt Q9H1C0). Its IC50 is 0.46

Sample COc1cc2c(C(=O)N3CCCCC3)cn(-c3noc4ccc(C)cc34)c(=O)c2cc1OC , system: Lysophosphatidic acid receptor 5 (Homo sapiens, UniProt Q9H1C0). Its IC50 is 0.21

Sample COc1cc2c(C(=O)N3CCCCC3)cn(-c3ccc4occ(C)c4c3)c(=O)c2cc1OC , system: Lysophosphatidic acid receptor 5 (Homo sapiens, UniProt Q9H1C0). Its IC50 is 0.19

Sample C#CC1CCN(C(=O)c2cn(-c3ccc4scc(C)c4c3)c(=O)c3cc(OC)c(OC)cc23)CC1 , system: Lysophosphatidic acid receptor 5 (Homo sapiens, UniProt Q9H1C0). Its IC50 is 0.35

Sample COc1cc2c(C(=O)N3CCCCC3)cn(-c3cccc(N(C)C)c3)c(=O)c2cc1OC , system: Lysophosphatidic acid receptor 5 (Homo sapiens, UniProt Q9H1C0). Its IC50 is 0.79

Sample COc1cc2c(C(=O)N3CCC(F)CC3)cn(-c3ccc4scc(C)c4c3)c(=O)c2cc1OC , system: Lysophosphatidic acid receptor 5 (Homo sapiens, UniProt Q9H1C0). Its IC50 is 0.34

Sample COc1cc2c(C(=O)N3CCC(F)CC3)cn(-c3ccc4occ(C)c4c3)c(=O)c2cc1OC , system: Lysophosphatidic acid receptor 5 (Homo sapiens, UniProt Q9H1C0). Its IC50 is 0.203

Sample COc1cc2c(C(=O)N3CCC(F)CC3)cn(-c3cccc(C(C)C)c3)c(=O)c2cc1OC , system: Lysophosphatidic acid receptor 5 (Homo sapiens, UniProt Q9H1C0). Its IC50 is 0.394

Sample COc1cc2c(C(=O)N3CCC(F)CC3)cn(-c3cccc(N(C)C)c3)c(=O)c2cc1OC , system: Lysophosphatidic acid receptor 5 (Homo sapiens, UniProt Q9H1C0). Its IC50 is 0.95

Sample CCN1CCc2ccc(-n3cc(C(=O)N4CCC(F)CC4)c4cc(OC)c(OC)cc4c3=O)cc21 , system: Lysophosphatidic acid receptor 5 (Homo sapiens, UniProt Q9H1C0). Its IC50 is 0.57
